Test system: Pasteurella multocida
ASSAY DETAILS: Effective dose required to inhibit Pasteurella multocida infection model in mouse by subcutaneous administration
Assay type: functional
ASSAY CONTEXT: Pasteurella multocida, sc; read-out: ED50
QUANTITY MEASURED: ED50 (mg/kg)

>>> recorded_number("CC[C@H]1OC(=O)[C@H](C)[C@@H](O[C@H]2C[C@@](C)(OC)[C@@](O)(CN(C)C3CC3)[C@H](C)O2)[C@H](C)[C@@H](O[C@@H]2O[C@H](C)C[C@H](N(C)C)[C@H]2O)[C@](C)(O)C[C@@H](C)CN[C@H](C)[C@@H](O)[C@]1(C)O")
17
>>> recorded_number("CC[C@H]1OC(=O)[C@H](C)[C@@H](O[C@H]2C[C@@](C)(OC)[C@](O)(CN(C)C)[C@H](C)O2)[C@H](C)[C@@H](O[C@@H]2O[C@H](C)C[C@H](N(C)C)[C@H]2O)[C@](C)(O)C[C@@H](C)CN[C@H](C)[C@@H](O)[C@]1(C)O")
5.9
>>> recorded_number("CC[C@H]1OC(=O)[C@H](C)[C@@H](O[C@H]2C[C@@](C)(OC)[C@@](O)(CN3CCCC3)[C@H](C)O2)[C@H](C)[C@@H](O[C@@H]2O[C@H](C)C[C@H](N(C)C)[C@H]2O)[C@](C)(O)C[C@@H](C)CN[C@H](C)[C@@H](O)[C@]1(C)O")
7.3
>>> recorded_number("CC[C@H]1OC(=O)[C@H](C)[C@@H](O[C@H]2C[C@@](C)(OC)[C@@](O)(CN(C)CCO)[C@H](C)O2)[C@H](C)[C@@H](O[C@@H]2O[C@H](C)C[C@H](N(C)C)[C@H]2O)[C@](C)(O)C[C@@H](C)CN[C@H](C)[C@@H](O)[C@]1(C)O")
12

----------
Tested on: Pasteurella multocida
ASSAY DETAILS: Effective dose required to inhibit Pasteurella multocida infection model in mouse by subcutaneous administration
Format: functional
ASSAY CONTEXT: Pasteurella multocida, sc; read-out: ED50
ED50 values by entry
QUANTITY MEASURED: ED50 (mg/kg)

>>> recorded_number("CC[C@H]1OC(=O)[C@H](C)[C@@H](O[C@H]2C[C@@](C)(OC)[C@@](O)(CNC(C)(C)C)[C@H](C)O2)[C@H](C)[C@@H](O[C@@H]2O[C@H](C)C[C@H](N(C)C)[C@H]2O)[C@](C)(O)C[C@@H](C)CN[C@H](C)[C@@H](O)[C@]1(C)O")
14
>>> recorded_number("CCCNC[C@@]1(O)[C@H](C)O[C@@H](O[C@H]2[C@H](C)[C@@H](O[C@@H]3O[C@H](C)C[C@H](N(C)C)[C@H]3O)[C@](C)(O)C[C@@H](C)CN[C@H](C)[C@@H](O)[C@](C)(O)[C@@H](CC)OC(=O)[C@@H]2C)C[C@@]1(C)OC")
12
>>> recorded_number("CC[C@H]1OC(=O)[C@H](C)[C@@H](O[C@H]2C[C@@](C)(OC)[C@@](O)(CN)[C@H](C)O2)[C@H](C)[C@@H](O[C@@H]2O[C@H](C)C[C@H](N(C)C)[C@H]2O)[C@](C)(O)C[C@@H](C)CN[C@H](C)[C@@H](O)[C@]1(C)O")
30
>>> recorded_number("CC[C@H]1OC(=O)[C@H](C)[C@@H](O[C@H]2C[C@@](C)(OC)[C@](O)(CNC3CC3)[C@H](C)O2)[C@H](C)[C@@H](O[C@@H]2O[C@H](C)C[C@H](N(C)C)[C@H]2O)[C@](C)(O)C[C@@H](C)CN[C@H](C)[C@@H](O)[C@]1(C)O")
15
>>> recorded_number("CC[C@H]1OC(=O)[C@H](C)[C@@H](O[C@H]2C[C@@](C)(OC)[C@@](O)(CN3CCOCC3)[C@H](C)O2)[C@H](C)[C@@H](O[C@@H]2O[C@H](C)C[C@H](N(C)C)[C@H]2O)[C@](C)(O)C[C@@H](C)CN[C@H](C)[C@@H](O)[C@]1(C)O")
49
>>> recorded_number("CC[C@H]1OC(=O)[C@H](C)[C@@H](O[C@H]2C[C@@](C)(OC)[C@@](O)(CNC3CC3)[C@H](C)O2)[C@H](C)[C@@H](O[C@@H]2O[C@H](C)C[C@H](N(C)C)[C@H]2O)[C@](C)(O)C[C@@H](C)CN[C@H](C)[C@@H](O)[C@]1(C)O")
20
>>> recorded_number("CC[C@H]1OC(=O)[C@H](C)[C@@H](O[C@H]2C[C@@](C)(OC)[C@@](O)(CNCC3CC3)[C@H](C)O2)[C@H](C)[C@@H](O[C@@H]2O[C@H](C)C[C@H](N(C)C)[C@H]2O)[C@](C)(O)C[C@@H](C)CN[C@H](C)[C@@H](O)[C@]1(C)O")
5.7
>>> recorded_number("CC[C@H]1OC(=O)[C@H](C)[C@@H](O[C@H]2C[C@@](C)(OC)[C@@](O)(Cn3ccnn3)[C@H](C)O2)[C@H](C)[C@@H](O[C@@H]2O[C@H](C)C[C@H](N(C)C)[C@H]2O)[C@](C)(O)C[C@@H](C)CN[C@H](C)[C@@H](O)[C@]1(C)O")
23
>>> recorded_number("CCCCNC[C@@]1(O)[C@H](C)O[C@@H](O[C@H]2[C@H](C)[C@@H](O[C@@H]3O[C@H](C)C[C@H](N(C)C)[C@H]3O)[C@](C)(O)C[C@@H](C)CN[C@H](C)[C@@H](O)[C@](C)(O)[C@@H](CC)OC(=O)[C@@H]2C)C[C@@]1(C)OC")
23
>>> recorded_number("CC[C@H]1OC(=O)[C@H](C)[C@@H](O[C@H]2C[C@@](C)(OC)[C@@](O)(CN(C)C)[C@H](C)O2)[C@H](C)[C@@H](O[C@@H]2O[C@H](C)C[C@H](N(C)C)[C@H]2O)[C@](C)(O)C[C@@H](C)CN[C@H](C)[C@@H](O)[C@]1(C)O")
9.9
>>> recorded_number("CC[C@H]1OC(=O)[C@H](C)[C@@H](O[C@H]2C[C@@](C)(OC)[C@@](O)(CN3CCCCC3)[C@H](C)O2)[C@H](C)[C@@H](O[C@@H]2O[C@H](C)C[C@H](N(C)C)[C@H]2O)[C@](C)(O)C[C@@H](C)CN[C@H](C)[C@@H](O)[C@]1(C)O")
40
